# Species: Bos taurus
# experimental_protocol: Thermal denaturation measured for calf thymus DNA after incubation at 37 degree at 0h.
The following compounds are listed with their measured ΔTm values.
Don't forget the unit after the number, please.

// solved cases for ΔTm follow
# ΔTm (compound: `COc1cc2c(cc1OCCCOc1cc3c(cc1OC)C(=O)N1CCC[C@H]1C(=O)N3)N=C[C@@H]1CCCN1C2=O` ) is 6.5 °C

Query `COc1cc2c(cc1OCCCCCOc1cc3c(cc1OC)C(=O)N1CCC[C@H]1C(=O)N3)N=C[C@@H]1CCCN1C2=O` yields ΔTm of 14 °C

Per the record, `COc1cc2c(cc1O)N=C[C@@H]1CCCN1C2=O` has ΔTm of 0.3 °C

Record `COc1cc2c(cc1OCCCOc1cc3c(cc1OC)C(=O)N1CCC[C@H]1C=N3)N=C[C@@H]1CCCN1C2=O` , field ΔTm: 10.2 °C

New cases:
Record `COc1cc2c(cc1OCCCCOc1cc3c(cc1OC)C(=O)N1CCC[C@H]1C(=O)N3)N=C[C@@H]1CCCN1C2=O` . Reported ΔTm: 5 °C

----------
Known ΔTm of a selection of compounds
# Species on record: Bos taurus
# experimental_protocol: Thermal denaturation measured for calf thymus DNA after incubation at 37 degree at 18 h.
API: value field is a number in °C; no unit string.

Below, each entry is followed by its recorded ΔTm result.
Recorded result, `COc1cc2c(cc1OCCCOc1cc3c(cc1OC)C(=O)N1CCC[C@H]1C(=O)N3)N=C[C@@H]1CCCN1C2=O` , ΔTm: 7

Form: compound = `COc1cc2c(cc1OCCCCOc1cc3c(cc1OC)C(=O)N1CCC[C@H]1C(=O)N3)N=C[C@@H]1CCCN1C2=O` ; ΔTm = 8.5

Next:
Looking up `COc1cc2c(cc1OCCCCCOc1cc3c(cc1OC)C(=O)N1CCC[C@H]1C(=O)N3)N=C[C@@H]1CCCN1C2=O` , I found its ΔTm recorded as 17

GET /value?item= `COc1cc2c(cc1O)N=C[C@@H]1CCCN1C2=O` &field=ΔTm returns 0.7
